Assay System: CyPPO10 (Thermosynechococcus elongatus BP-1 PPO, SEQ ID NO: 2) variant F360M, MBP fusion (Thermosynechococcus vestitus, UniProt Q8DLV2, F360M)
Sequence (Q8DLV2 entry or part of it F360M): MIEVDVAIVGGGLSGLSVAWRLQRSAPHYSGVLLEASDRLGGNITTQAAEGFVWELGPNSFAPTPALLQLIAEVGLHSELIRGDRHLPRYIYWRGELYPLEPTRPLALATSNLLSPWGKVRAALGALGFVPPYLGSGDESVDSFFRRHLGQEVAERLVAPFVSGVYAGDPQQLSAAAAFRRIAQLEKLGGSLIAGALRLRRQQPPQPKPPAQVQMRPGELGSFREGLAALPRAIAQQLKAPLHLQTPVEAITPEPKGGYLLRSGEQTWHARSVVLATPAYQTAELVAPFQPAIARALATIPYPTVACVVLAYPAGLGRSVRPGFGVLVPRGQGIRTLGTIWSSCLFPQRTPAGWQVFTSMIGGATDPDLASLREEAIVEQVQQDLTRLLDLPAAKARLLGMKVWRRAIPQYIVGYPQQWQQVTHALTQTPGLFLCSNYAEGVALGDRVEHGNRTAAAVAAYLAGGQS
Test Details: biochemical
pIC50: −log10 of the molar value.
Value Type: pIC50

# Smiles Entry, Value Measured
records = [
    ("C=CCOC(=O)C(C)(C)OC(=O)c1cc(-n2c(=O)cc(C(F)(F)F)n(C)c2=O)ccc1Cl", 7.62),
]

###

Tested on: CyPPO13 (Synechococcus sp. JA-3-3Ab PPO, SEQ ID NO: 4) variant F373T, MBP fusion
Test Details: PPO inhibition assay
Type: biochemical
Experimental Conditions: herbicide 0-5,000 nM, 50 μM substrate

# Molecule, Assay System, Value Units, IC50
records = [
    ("COC(=O)CCNC(=O)C(C)Sc1cc(-n2c(=O)cc(C(F)(F)F)n(C)c2=O)c(F)cc1Cl (stereo not shown) [Tiafenacil]", "CyPPO13 (Synechococcus sp. JA-3-3Ab PPO, SEQ ID NO: 4) variant F373T, MBP fusion", "nM", 818),
]
